# testedSystem: Ras farnesyl transferase (Homo sapiens, UniProt P49354+P49356)
# Construct: made in house
# testDescription: in vitro inhibitory activity for Ras farnesyl transferase, H-Ras substrate
# Format: biochemical
# measurementParameters: recombinant Ras farnesyl transferase, H-Ras substrate, tritium-farnesylpyrophosphate, 30 minutes at 37° C.; read-out: H-Ras IC50
# Description: In the present experiment, Ras farnesyl transferase produced by genetic recombination techniques according to the improved Pompliano's method (Pompliano et al., Biochemistry, 1992, 31, 3800) was used, and Ras substrate(Ras-CVLS) protein described in Korean Patent Appln. No. 97-14409 was used after it has been purified according to the known method(see, Chung et al., Biochimica et Biophysica Acta, 1992, 278, 1129). […]
assayMetric: pIC50
# pIC50 is unitless: minus log10 of the molar concentration; print number only

[[record]]
testsmiles = "COCCN(C)C(=O)c1cn(Cc2cncn2CC2CCNCC2)cc1-c1cccc2ccccc12"
testedsystem = "Ras farnesyl transferase (Homo sapiens, UniProt P49354+P49356)"
assaymetric = "pIC50"
reportedresult = 8.10


GET /values?readout=pIC50&item= "COCCN(C)C(=O)c1cn(Cc2cncn2CC2CCN(C(=O)N3CCc4ccccc4C3)CC2)cc1-c1cccc2ccccc12" 8.70

GET /values?readout=pIC50&item= "COCCN(C)C(=O)c1cn(Cc2cncn2CC2CCN(C(=O)OCc3csc(C(C)C)n3)CC2)cc1-c1cccc2ccccc12" 8.40

GET /values?readout=pIC50&item= "CCC(=O)N1CCC(Cn2cncc2Cn2cc(C(=O)N(C)CCOC)c(-c3cccc4ccccc34)c2)CC1" 9.00

GET /values?readout=pIC50&item= "CN1CCN(C(=O)c2cn(Cc3cncn3CC3CCN(C(=O)OCc4ccccc4)CC3)cc2-c2cccc3ccccc23)CC1" 8.42

GET /values?readout=pIC50&item= "CC(=O)N1CCC(Cn2cncc2Cn2cc(C(=O)N3CCN(C)CC3)c(-c3cccc4ccccc34)c2)CC1" 8.92
